Test system: WI-26VA4 human lung fibroblast cell line
Experiment: MTT cell viability assay, WI-26VA4
Format: cell-based
Conditions: Homo sapiens, WI26VA4, 48 h, 0.01 to 100 μM, read-out: IC50 (μM) ± S.D WI-26VA4
Description: The MDA-MB-231 human breast adenocarcinoma cell line (ATCC HTB-26), A549 human lung carcinoma cell line (ATCC CCL-185), TOV-21G human ovarian adenocarcinoma cell line (ATCC CRL-11730), and WI-26VA4 human lung fibroblast cell line (ATCC CCL-95.1) were cultured in RPMI-1640 medium supplemented with 10% fetal bovine serum (FBS) and gentamicin (100 μg/mL). […] Cell viability was assessed using the MTT assay (3-[4,5-dimethylthiazol-2-yl]-2,5-diphenyl-tetrazolium bromide). […]
measurementType: IC50

compound	measuredOn	measurementType	result
COC(=O)C(C#N)=C1NCCCCN1	WI-26VA4 human lung fibroblast cell line	IC50	> 100 µM
N#CC(C(=O)c1ccccc1)=C1NCCCCN1	WI-26VA4 human lung fibroblast cell line	IC50	> 100 µM
N#CC(C#N)=C1NCCCCN1	WI-26VA4 human lung fibroblast cell line	IC50	> 100 µM
COc1cccc2c1C(=O)c1c(O)c3c(c(O)c1C2=O)C[C@@](O)(C(=O)CO)C[C@@H]3O[C@H]1C[C@H](N)[C@H](O)[C@H](C)O1 [doxorubicin, reference compound]	WI-26VA4 human lung fibroblast cell line	IC50	7 µM
CCOC(=O)C(C(=O)OCC)=C1NCCCCN1	WI-26VA4 human lung fibroblast cell line	IC50	> 100 µM

====

System: A549 human lung carcinoma cell line
Experiment: MTT cell viability assay, A549
Format: cell-based
Conditions: Homo sapiens, A549, 48 h, 0.01 to 100 μM, read-out: IC50 (μM) ± S.D A549
In this section, each of the compounds is paired with its reported IC50.

compound	IC50
COc1cccc2c1C(=O)c1c(O)c3c(c(O)c1C2=O)C[C@@](O)(C(=O)CO)C[C@@H]3O[C@H]1C[C@H](N)[C@H](O)[C@H](C)O1 [doxorubicin, reference compound]	0.67 µM
N#CC(C#N)=C1NCCCCN1	> 100 µM
COC(=O)C(C#N)=C1NCCCCN1	> 100 µM
CCOC(=O)C(C(=O)OCC)=C1NCCCCN1	> 100 µM

====

Each entry below lists one item and its recorded IC50 value.
System: MDA-MB-231 human breast adenocarcinoma cell line
Assay: MTT cell viability assay, MDA-MB-231
Type: cell-based
Conditions: Homo sapiens, MDA-MB-231, 48 h, 0.01 to 100 μM, read-out: IC50 (μM) ± S.D MDA-MB-231
measurementType: IC50

molecule	measuredOn	result
CCOC(=O)C(C(=O)OCC)=C1NCCCCN1	MDA-MB-231 human breast adenocarcinoma cell line	> 100 µM
N#CC(C#N)=C1NCCCCN1	MDA-MB-231 human breast adenocarcinoma cell line	> 100 µM
COC(=O)C(C#N)=C1NCCCCN1	MDA-MB-231 human breast adenocarcinoma cell line	> 100 µM
N#CC(C(=O)c1ccccc1)=C1NCCCCN1	MDA-MB-231 human breast adenocarcinoma cell line	> 100 µM
COc1cccc2c1C(=O)c1c(O)c3c(c(O)c1C2=O)C[C@@](O)(C(=O)CO)C[C@@H]3O[C@H]1C[C@H](N)[C@H](O)[C@H](C)O1 [doxorubicin, reference compound]	MDA-MB-231 human breast adenocarcinoma cell line	2.6 µM

This collection of values is drawn from paper PMC12612871.
